Origin of the recorded values: ChEMBL document CHEMBL1157539

# Test system: HepG2
# assay-overview: GSK_TCMDC: Percent inhibition of human HepG2 cell line. Test compounds present at 10uM.
# Assay type: functional
Is Inhibition at least 20%? Then 1 (yes). If not, 0 (no).

molecule: Cc1c(CNCCCNc2cc(=O)c3ccccc3[nH]2)sc(C(F)F)c1Br.Cl
study-system: HepG2
label-value: 0 (no)

molecule: O=C(/C=C/c1ccccc1O)N1CCC(CCN2CCC(c3c[nH]c4ccccc34)CC2)CC1
study-system: HepG2
label-value: 1 (yes)

molecule: O=C(/C=C/c1ccc(Cl)cc1)NCCCCCN1CCCC(C(=O)Nc2ccc(Cl)cc2)C1 (centres undefined)
study-system: HepG2
label-value: 1 (yes)

molecule: O=c1cc(NCCCNCc2cc(Cl)c(Cl)cc2Cl)[nH]c2ccccc12
study-system: HepG2
label-value: 0 (no)

molecule: CCN(CC)CCCN(C(=O)c1cc2c(C)nn(-c3ccccc3)c2s1)c1nc(-c2ccc(OC)cc2)cs1.Cl
study-system: HepG2
label-value: 0 (no)

Hi team, for "O=C(Nc1cccc(CN2CCN(Cc3ccc(O)cc3)CC2)c1)c1ccc(-c2ccccc2)cc1.O=C(O)C(F)(F)F" , is the recorded Inhibition at or above 20%?
1 (yes)

Hi team, for "CC(C)COc1ccc(Cl)cc1Cc1nc(-c2nc3ccc(CN4CCCCC4)cc3[nH]2)co1.Cl" , is the recorded Inhibition at or above 20%?
1 (yes)

Hi team, for "Cc1cccc2nc(-c3cccc(-c4ccc(NC(=O)c5ccc(=O)[nH]n5)cc4)c3)[nH]c12" , is the recorded Inhibition at or above 20%?
0 (no)

Hi team, for "CCOC(=O)c1cnc2c(OC)cc(OC)c(Cl)c2c1Nc1ccccc1" , is the recorded Inhibition at or above 20%?
0 (no)

###

For each entry below, report its Inhibition value.
# Test system: Plasmodium falciparum
# assay-overview: GSK_TCMDC: Inhibition of Plasmodium falciparum 3D7 in whole red blood cells, using parasite LDH activity as an index of growth. Test compounds present at 2uM
# Type: functional
One number for each entry, in %.

Solved cases (2 shown):
compound: O=C(Nc1cc(C(F)(F)F)ccc1N1CCOCC1)C(Cl)(Cl)Cl
study-system: Plasmodium falciparum
Inhibition [%]: 100
--
compound: O=C(Nc1ccccc1)Nc1cccc(-c2cc(CNCCc3ccccc3)sc2-c2ccncc2)c1
study-system: Plasmodium falciparum
Inhibition [%]: 100

Please give Inhibition for each item listed below.
1. CCC1(C)N=C(N)N=C(N)N1c1ccccc1.Cl (stereo unspecified)
2. O=c1c2ccccc2[nH]c2cc(Cl)ccc12
3. O=C(NCCCCCN1CCC(c2c[nH]c3ccccc23)CC1)Nc1cccc(C(F)(F)F)c1
4. CCCCCOc1c(CCC)cc(Cc2cnc(N)nc2N)cc1CCC

1. 98
2. 95
3. 97
4. 94

###

# Tested on: Plasmodium falciparum
# assay-overview: GSK_TCMDC: Inhibition of Plasmodium falciparum Dd2 in whole red blood cells, using parasite LDH activity as an index of growth. Test compounds present at 2uM
# Type: functional
Is Inhibition at least 80%? Then y. If not, n.

Past entries and their recorded results:
compound: CCn1ccc2c(N3CCCCS3(=O)=O)cc(C(=O)N[C@@H](Cc3ccccc3)[C@H](O)CNC(C)(C)c3cccc(C(F)(F)F)c3)cc21
label-value: y

compound: O=C(Nc1ccc(N2CCN(Cc3ccccc3Cl)CC2)cc1)c1ccc([N+](=O)[O-])o1
label-value: n

compound: CC(=O)Nc1ncc(C(=O)Nc2cccc(-c3ccc(-c4nc5cc(C(F)(F)F)ccc5[nH]4)s3)c2)s1
label-value: y

compound: O=C(c1ccc(-c2cccc(-c3nc4cc(F)ccc4[nH]3)c2)cc1)N1CCCCC1CN1CCC(O)C1 (stereo unspecified)
label-value: n

compound: COc1c(CN2CCCC2)cccc1-c1cc2c(-c3ccc(C(=O)O)c(C(C)C)c3)ccnc2[nH]1.O=C(O)C(F)(F)F
label-value: y

Hi team, for "O=C(O)C(F)(F)F.O=C1OC(c2ccccc2)(c2ccccc2)CN1CC1CCN(Cc2ccc(O)c(Cl)c2)CC1" , is the recorded Inhibition at or above 80%?
y

Hi team, for OC(CNc1cccc(Cl)c1)Cn1c2ccc(Cl)cc2c2cc(Cl)ccc21 (stereo unspecified) , is the recorded Inhibition at or above 80%?
n

Hi team, for "Cl.NC(=O)c1sc(-n2cnc3ccc(OCC4CCNCC4)cc32)cc1OCc1ccccc1C(F)(F)F" , is the recorded Inhibition at or above 80%?
n

###

# Tested on: Plasmodium falciparum
# assay-overview: GSK_TCMDC: Inhibition of Plasmodium falciparum 3D7 in whole red blood cells, using parasite LDH activity as an index of growth. Test compounds present at 2uM
# Type: functional
property: Inhibition (%)
Numbers only, in %.

Solved cases (3 shown):
molecule: COc1ccc(CC2(c3ccc(F)cc3)N=C(N)N(CCCc3ccc4c(c3)OCO4)C2=O)cc1.O=C(O)C(F)(F)F (centres undefined)
property: Inhibition
number: 98
//
molecule: COc1nc2c(CCN3CC[C@@H](NCc4cc(C#N)c5c(c4)CCO5)[C@@H](O)C3)ccnc2cc1F.Cl
property: Inhibition
number: 92
//
molecule: O=C(/C=C/c1ccc(Cl)c(Cl)c1)NCCCCCN1CCCC(CNC(=O)c2sc3ccccc3c2Cl)C1 (centres undefined)
property: Inhibition
number: 98

// moving on: another record for Inhibition
What value of Inhibition has been recorded for this entry: "CC(C)c1ccc(CN2CCC(NC(=O)c3ccc(-c4ccccc4F)s3)CC2)cc1.O=C(O)C(F)(F)F"
81

###

# Tested on: HepG2
# assay-overview: GSK_TCMDC: Percent inhibition of human HepG2 cell line. Test compounds present at 10uM.
# Assay type: functional
property: Inhibition (%)
Numbers only, in %.

Solved cases (5 shown):
molecule: CC(C)(C)c1ccc(CNC(=O)c2ccc(-c3nc4ccc(Cl)cc4[nH]3)cc2)cc1
study-system: HepG2
endpoint-unit: %
number: 14
--
molecule: CN(C)CCOc1ccc(NC(=O)Nc2ccnc3c(Br)cccc23)cc1Cl
study-system: HepG2
endpoint-unit: %
number: 10
--
molecule: Cc1n[nH]c2cc(Nc3ccnc(Nc4cccc(CN5CCOCC5)c4)n3)ccc12
study-system: HepG2
endpoint-unit: %
number: 33
--
molecule: COc1ccc(C(=O)N2CCC3(CC2)C(=O)N(CC(=O)NCC2CCCCC2)CN3c2ccccc2)c(OC)c1
study-system: HepG2
endpoint-unit: %
number: 6
--
molecule: CS(=O)(=O)c1ccc2c(c1)CCN(CCC1CCC(NC(=O)C(=Cc3cccc(C#N)c3)c3ccc(-c4ccccc4)cc3)CC1)CC2 (stereo not drawn)
study-system: HepG2
endpoint-unit: %
number: 24

Please give Inhibition for each item listed below.
1. COc1ccc(Cl)cc1N1CCN(CCCNC(=O)c2ccc(-c3nc4cnccc4[nH]3)c(Br)c2)CC1
2. Cc1ccc(Nc2ccnc3cc(-c4nccs4)ccc23)cc1C(O)c1ccccc1.Cl (stereo not drawn)
3. COc1ccc(C2C(C(=O)OC3CCCCC3)=C(C)NC3=C2C(=O)CCC3)cc1Br (stereo not drawn)
4. COc1cccc(C(=O)Nc2nonc2-c2ccc(OC)c(OC)c2)c1
5. Cc1cccc(CNc2nc(C)cc(N[C@@H](Cc3ccccc3)C(=O)NC3CCCC3)n2)c1.O=C(O)C(F)(F)F
6. O=C(Cn1c(CCc2cccc(F)c2F)nc(=O)c2ccccc21)N(Cc1ccc(-c2ccc(C(F)(F)F)cc2)cc1)C1CCN(C2=NCCS2)CC1.O=C(O)C(O)C(O)C(=O)O
7. CCCCC(=O)NC(c1cccs1)c1cc(Cl)c2cccnc2c1O (stereo not drawn)
8. COc1ccc(CCN(C)CCOc2ccc(NC(=O)c3cccc4c(=O)c5cc(SC)ccc5[nH]c34)cc2)cc1OC

1. 5
2. 23
3. 7
4. 7
5. 51
6. 62
7. 50
8. 52

Please give Inhibition for each item listed below.
1. C#CCNCc1ccc(-c2cccc(-c3nc4cccc(C)c4[nH]3)c2)cc1.O=C(O)C(F)(F)F
2. O=C(NCC1CCCCC1)c1cc(=O)c2ccccc2o1
3. Br.CCC(CCON1C(N)=NC(N)=NC1(C)C)c1ccc(Cl)c(Cl)c1 (stereo not drawn)
4. O=C(NCCCc1ccccc1)c1ccc(O)c(-c2cc(Cl)cc(Cl)c2)c1
5. CC(C)(C)c1ccc(CN(C[C@@H](O)CNS(=O)(=O)c2cc(Cl)cc(Cl)c2)C(C)(C)C)cc1.Cl

[0, 0, 68, 0, 74]

###

For each entry below, report its Inhibition value.
# Tested on: Plasmodium falciparum
# assay-overview: GSK_TCMDC: Inhibition of Plasmodium falciparum 3D7 in whole red blood cells, using parasite LDH activity as an index of growth. Test compounds present at 2uM
# Type: functional
One number for each entry, in %.

Please give Inhibition for each item listed below.
1. COc1ccc(CNc2ccnc3cc(OC)ccc23)cc1
2. Cc1ccc(C(=O)Cn2nc(-c3ccc(C)c(S(=O)(=O)N4CCCC4)c3)ccc2=O)cc1

1. 100
2. 94
